Target: JAK3 (Homo sapiens)
Sequence (P52333 1-1124): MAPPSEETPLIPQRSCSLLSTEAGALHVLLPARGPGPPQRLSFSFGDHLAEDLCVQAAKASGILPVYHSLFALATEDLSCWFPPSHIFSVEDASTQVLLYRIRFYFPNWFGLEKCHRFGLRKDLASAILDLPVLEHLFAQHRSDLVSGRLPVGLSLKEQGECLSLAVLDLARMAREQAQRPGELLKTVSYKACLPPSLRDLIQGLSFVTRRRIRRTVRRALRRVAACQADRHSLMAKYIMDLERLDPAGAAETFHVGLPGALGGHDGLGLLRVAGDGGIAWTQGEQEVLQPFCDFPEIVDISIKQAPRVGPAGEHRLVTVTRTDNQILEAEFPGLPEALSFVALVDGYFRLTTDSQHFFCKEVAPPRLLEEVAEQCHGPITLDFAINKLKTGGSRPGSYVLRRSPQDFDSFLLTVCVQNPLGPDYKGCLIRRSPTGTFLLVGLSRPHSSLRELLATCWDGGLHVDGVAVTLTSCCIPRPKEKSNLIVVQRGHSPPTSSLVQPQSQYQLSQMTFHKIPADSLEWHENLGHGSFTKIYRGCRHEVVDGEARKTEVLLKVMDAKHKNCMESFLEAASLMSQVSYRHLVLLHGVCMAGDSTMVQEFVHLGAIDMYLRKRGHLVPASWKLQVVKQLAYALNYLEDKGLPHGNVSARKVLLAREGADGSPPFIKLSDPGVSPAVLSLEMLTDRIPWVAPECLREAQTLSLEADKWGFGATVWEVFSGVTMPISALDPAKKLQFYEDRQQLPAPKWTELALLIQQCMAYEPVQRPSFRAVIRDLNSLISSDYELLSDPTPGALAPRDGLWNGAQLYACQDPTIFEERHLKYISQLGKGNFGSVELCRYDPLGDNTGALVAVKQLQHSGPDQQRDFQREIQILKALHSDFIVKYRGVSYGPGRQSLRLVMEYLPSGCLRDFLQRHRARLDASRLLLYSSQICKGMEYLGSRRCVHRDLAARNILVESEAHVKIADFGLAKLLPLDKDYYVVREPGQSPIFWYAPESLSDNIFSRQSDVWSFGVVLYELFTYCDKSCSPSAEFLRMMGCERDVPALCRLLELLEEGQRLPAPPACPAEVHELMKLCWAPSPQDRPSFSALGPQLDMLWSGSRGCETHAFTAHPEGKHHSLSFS
MEASUREMENT_TYPE: pIC50
// field semantics: pIC50 = negative decimal log of concentration (mol/L)

Query string: What measured pIC50 is associated with `COc1cc(/C=C/S(=O)(=O)c2ccccc2)cc(OC)c1OC` on JAK3 (Homo sapiens)?
Result string: 6.80

# credit: paper PMC8069501
